Target: Voltage-gated inwardly rectifying potassium channel KCNH2 (Homo sapiens)
Sequence (Q12809 whole entry): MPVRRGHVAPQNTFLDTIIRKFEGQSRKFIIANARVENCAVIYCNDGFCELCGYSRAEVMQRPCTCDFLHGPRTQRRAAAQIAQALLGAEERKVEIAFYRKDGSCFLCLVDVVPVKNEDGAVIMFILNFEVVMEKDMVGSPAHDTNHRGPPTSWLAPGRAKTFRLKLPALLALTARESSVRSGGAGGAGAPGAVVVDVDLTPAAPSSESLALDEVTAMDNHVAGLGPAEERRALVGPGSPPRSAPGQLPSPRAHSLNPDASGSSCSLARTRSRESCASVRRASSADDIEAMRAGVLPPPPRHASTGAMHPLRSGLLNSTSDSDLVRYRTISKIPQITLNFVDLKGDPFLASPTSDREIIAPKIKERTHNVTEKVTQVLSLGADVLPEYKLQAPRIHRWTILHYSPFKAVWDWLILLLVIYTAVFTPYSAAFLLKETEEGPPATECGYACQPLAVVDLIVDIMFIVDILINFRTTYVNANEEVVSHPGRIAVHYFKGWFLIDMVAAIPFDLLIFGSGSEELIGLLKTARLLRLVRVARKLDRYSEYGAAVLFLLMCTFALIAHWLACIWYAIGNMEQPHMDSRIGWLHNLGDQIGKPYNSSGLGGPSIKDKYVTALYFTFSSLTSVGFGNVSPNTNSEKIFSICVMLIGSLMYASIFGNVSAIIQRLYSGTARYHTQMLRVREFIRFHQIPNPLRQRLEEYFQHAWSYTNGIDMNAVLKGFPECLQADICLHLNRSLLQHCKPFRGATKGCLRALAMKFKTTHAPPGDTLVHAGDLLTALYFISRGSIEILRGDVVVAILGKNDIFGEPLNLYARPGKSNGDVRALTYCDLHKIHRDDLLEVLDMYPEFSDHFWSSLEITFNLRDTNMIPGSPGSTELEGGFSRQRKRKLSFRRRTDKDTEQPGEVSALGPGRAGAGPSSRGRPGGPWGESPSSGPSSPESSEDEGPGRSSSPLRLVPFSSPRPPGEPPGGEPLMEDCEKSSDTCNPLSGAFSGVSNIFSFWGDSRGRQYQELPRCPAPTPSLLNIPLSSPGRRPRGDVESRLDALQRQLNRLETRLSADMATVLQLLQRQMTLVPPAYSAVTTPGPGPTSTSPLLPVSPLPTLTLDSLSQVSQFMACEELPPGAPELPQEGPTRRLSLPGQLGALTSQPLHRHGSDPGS
measuredMetric: IC50

Nc1nc(OCc2ccc3c(c2)OCO3)c2nc[nH]c2n1 = > 30 µM

* * *

Assay: Antiproliferative activity against human HCC cells assessed as cell viability incubated for 72 hrs by alamar blue dye based assay
Type: toxicity
Details: HCC cells
Quick rule for you: IC50 at 72 h under 6 µM gets label 1, anything else gets label 0.

Nc1nc(OCc2cccc(C(F)(F)F)c2)c2nc[nH]c2n1 = label 0
COc1cc(COc2nc(N)nc3[nH]cnc23)ccc1OCc1ccccc1 = label 0
Nc1nc(OCc2ccccc2-c2ccccc2)c2nc[nH]c2n1 = label 0
Cc1ccc(COc2nc(N)nc3[nH]cnc23)cc1C = label 1
CCCCOc1nc(N)nc2[nH]cnc12 = label 0
Nc1nc(OCc2ccc3c(c2)OCO3)c2nc[nH]c2n1 = label 1
CC(=O)NCc1ccc(COc2nc(N)nc3[nH]cnc23)cc1 = label 1
Nc1nc(OCc2ccccc2)c2[nH]cnc2n1 = label 0
Nc1nc(OCc2cccc(Cl)c2Cl)c2nc[nH]c2n1 = label 0
COc1cccc(COc2nc(N)nc3c2ncn3Cc2ccccc2)c1 = label 0
Cc1cccc(COc2nc(N)nc3nc[nH]c23)c1 = label 1
COCOc1ccc(COc2nc(N)nc3[nH]cnc23)cc1OC = label 0
Nc1nc(OCc2cc(F)ccc2Br)c2nc[nH]c2n1 = label 0
CSc1ccc(COc2nc(N)nc3[nH]cnc23)cc1 = label 0
COc1ccc(COc2nc(N)nc3[nH]cnc23)cc1 = label 1
CCOC(=O)CCCn1cnc2c(OCc3cccc(OC)c3)nc(N)nc21 = label 0
COc1cccc(Oc2nc(N)nc3[nH]cnc23)c1 = label 0
CCOC(=O)Cn1cnc2c(OCc3cccc(Cl)c3Cl)nc(N)nc21 = label 0
Nc1nc(OCc2cc(F)ccc2F)c2nc[nH]c2n1 = label 0
COc1cccc(COc2nc(N)nc3[nH]cnc23)c1 = label 0
COCOc1cccc(COc2nc(N)nc3[nH]cnc23)c1 = label 0
CCOC(=O)Cn1cnc2c(OCc3cccc(F)c3)nc(N)nc21 = label 0
Nc1nc(OCc2cccc(Cl)c2)c2nc[nH]c2n1 = label 1
Nc1nc(OCC2CCCCC2)c2nc[nH]c2n1 = label 0
Nc1nc(OCc2cc(OCc3ccccc3)cc(OCc3ccccc3)c2)c2nc[nH]c2n1 = label 0

* * *

Test: Antiproliferative activity against human HCC cells assessed as cell viability incubated for 72 hrs by alamar blue dye based assay
Format: toxicity
Conditions: HCC cells
Quick rule for you: IC50 at 72 h under 10 µM gets met, anything else gets not met.

Nc1nc(SCc2ccccc2)c2[nH]cnc2n1 = not met
Nc1nc(OCc2ccc(Br)cc2)c2[nH]cnc2n1 = met
Nc1nc(OCc2cccc3ccccc23)c2nc[nH]c2n1 = not met
Nc1nc(OCc2cccs2)c2nc[nH]c2n1 = not met
COC(=O)Cn1cnc2c(OCc3cccc(Cl)c3Cl)nc(N)nc21 = not met
Nc1nc(OCc2cccc(F)c2)c2nc[nH]c2n1 = met
CCOC(=O)Cn1cnc2c(OCc3cccc(OC)c3)nc(N)nc21 = not met
Nc1nc(OCc2cccc(Br)c2)c2nc[nH]c2n1 = not met

* * *

Experiment: Antiproliferative activity against human HCC cells assessed as cell viability incubated for 72 hrs by alamar blue dye based assay
Format: toxicity
Conditions: HCC cells
Listed here: items and their measured IC50 at 72 h.
measuredMetric: IC50 at 72 h

Nc1nc(OCCCc2ccccc2)c2nc[nH]c2n1 = 35.6 µM
COc1cc(COc2nc(N)nc3[nH]cnc23)cc(OC)c1OC = > 50 µM
Nc1nc(OCc2cccc(Oc3ccccc3)c2)c2nc[nH]c2n1 = 34.3 µM
Cc1ccc(COc2nc(N)nc3nc[nH]c23)cc1 = 6.1 µM
Nc1nc(OCc2ccccc2Cl)c2nc[nH]c2n1 = 5.6 µM
CCOC(=O)Cn1cnc2c(OCc3cccc(Oc4ccccc4)c3)nc(N)nc21 = > 50 µM

* * *

pIC50: −log10 of the molar value.
pIC50 values recorded for Peptidyl-prolyl cis-trans isomerase NIMA-interacting 1 (Homo sapiens)
measuredMetric: pIC50

Nc1nc(OCc2cccc3ccccc23)c2nc[nH]c2n1 = 5.24
Cc1cccc(COc2nc(N)nc3nc[nH]c23)c1 = 6.68
CCOC(=O)Cn1cnc2c(OCc3cccc(OC)c3)nc(N)nc21 = 4.66
COc1cccc(COc2nc(N)nc3[nH]cnc23)c1 = 4.87
CCOC(=O)Cn1cnc2c(OCc3cccc(F)c3)nc(N)nc21 = 5.10

* * *

IC50 values recorded for UniProtKB Q13526
measuredMetric: IC50 (nM)

COc1cc(COc2nc(N)nc3[nH]cnc23)ccc1OCc1ccccc1 = 11100
COCOc1ccc(COc2nc(N)nc3[nH]cnc23)cc1OC = 519
COC(=O)Cn1cnc2c(OCc3cccc(Cl)c3Cl)nc(N)nc21 = 829
Nc1nc(OCc2cccc(F)c2)c2nc[nH]c2n1 = 34500
Nc1nc(SCc2ccccc2)c2[nH]cnc2n1 = 2060
Nc1nc(OCc2ccc3c(c2)OCO3)c2nc[nH]c2n1 = 64.4
Nc1nc(OCc2ccccc2)c2[nH]cnc2n1 [6-O-BENZYLGUANINE] = 91.4
COc1ccc(COc2nc(N)nc3[nH]cnc23)cc1 = 5390
Cc1ccc(COc2nc(N)nc3[nH]cnc23)cc1C = 951
COc1cc(COc2nc(N)nc3[nH]cnc23)cc(OC)c1OC = 7850
Nc1nc(OCc2ccccc2Cl)c2nc[nH]c2n1 = 148
COCOc1cccc(COc2nc(N)nc3[nH]cnc23)c1 = 508

Where these numbers come from: ChEMBL document CHEMBL6096731
